Provenance of the data: paper PMC12794095

target: HsDHODH (Homo sapiens); assay: HsDHODH inhibitory assay monitoring DCIP reduction (single dose 250 μM and concentration-response)
Sequence (Q02127 whole entry): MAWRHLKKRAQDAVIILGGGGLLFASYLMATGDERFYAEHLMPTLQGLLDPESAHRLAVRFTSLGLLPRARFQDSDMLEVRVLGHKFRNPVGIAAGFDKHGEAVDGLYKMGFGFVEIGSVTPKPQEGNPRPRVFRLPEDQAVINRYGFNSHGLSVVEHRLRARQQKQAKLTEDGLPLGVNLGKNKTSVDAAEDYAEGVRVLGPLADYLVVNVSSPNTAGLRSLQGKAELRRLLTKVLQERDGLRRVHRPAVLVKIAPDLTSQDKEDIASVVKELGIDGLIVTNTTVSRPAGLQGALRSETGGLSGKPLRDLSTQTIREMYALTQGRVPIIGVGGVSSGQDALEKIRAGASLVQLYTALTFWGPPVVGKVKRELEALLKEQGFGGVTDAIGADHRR
Assignment: determine reported IC50 for the given compounds.
The reply should be a number in µM, with the unit left off.

What value of measured IC50 is listed for O=c1[nH]c(NCCCc2ccccc2)nc2ccccc12 [Compound 10k] ? 20

Another compound: O=c1[nH]c(NCCCCc2ccccc2)nc2ccccc12 [Compound 10l] 30

Another compound: O=c1[nH]c(Nc2ccc3c(c2)OCCO3)nc2ccccc12 [Compound 10c] 25

Another compound: O=c1[nH]c(NCCc2ccccc2)nc2ccccc12 [Compound 10i] 12

Another compound: O=c1[nH]c(Nc2cccc(-c3ccccc3)c2)nc2ccccc12 [Compound 10e] 0.59

Another compound: O=c1[nH]c(NCCc2ccc(F)cc2)nc2ccccc12 [Compound 10j] 39

* * *

assay: in vitro; details: human
Assignment: determine reported CC50 for the given compounds.
The reply should be a number in µM, with the unit left off.

What value of measured CC50 is listed for O=c1[nH]c(NCCc2ccc(F)cc2)nc2ccccc12 [Compound 10j] ? 290

Another compound: O=c1[nH]c(N2CCN(c3cccc(C(F)(F)F)c3)CC2)nc2ccccc12 [Compound 10f] 200

Another compound: COc1ccc(Nc2nc3ccccc3c(=O)[nH]2)cc1 [Compound 10a] 165

Another compound: O=c1[nH]c(NCCc2ccccc2)nc2ccccc12 [Compound 10i] 140

Another compound: O=c1[nH]c(Nc2ccc(-c3ccccc3)cc2)nc2ccccc12 [Compound 10d] 130

Another compound: O=c1[nH]c2ccccc2nc1Nc1ccc2c(c1)OCCO2 188

Another compound: O=c1[nH]c(Nc2ccc(F)cc2)nc2ccccc12 [Compound 10b] 107

Another compound: O=c1[nH]c(N2CCN(c3ccccc3)CC2)nc2ccccc12 [Compound 10g] 290

Another compound: COc1ccc(Nc2nc3ccccc3[nH]c2=O)cc1 74

Another compound: O=c1[nH]c(Nc2cccc(-c3ccccc3)c2)nc2ccccc12 [Compound 10e] 180

Another compound: O=c1[nH]c2ccccc2nc1Nc1ccc(F)cc1 201

Another compound: O=c1[nH]c(NCCCc2ccccc2)nc2ccccc12 [Compound 10k] 290

Another compound: O=c1[nH]c(NCCCCc2ccccc2)nc2ccccc12 [Compound 10l] 200

Another compound: O=c1[nH]c(Nc2ccc3c(c2)OCCO3)nc2ccccc12 [Compound 10c] 100

Another compound: O=c1[nH]c2ccccc2nc1Nc1ccc(Cl)cc1 165

Another compound: Oc1nc(NCc2ccccc2)nc2ccccc12 [Compound 10h] 160

* * *

target: HsDHODH (Homo sapiens); experiment: HsDHODH inhibitory assay monitoring DCIP reduction (single dose 250 μM and concentration-response); details: read-out: Enzymatic Activity ± SD (%)
Under this convention, yes (1) denotes remaining activity at 250 µM strictly below 30% and no (0) denotes remaining activity at 250 µM at or above 30%.

For Oc1nc(NCc2ccccc2)nc2ccccc12 [Compound 10h] , is the recorded remaining activity at 250 µM below the cut-off of 30%? no (0)

Another compound: O=c1[nH]c(NCCc2ccccc2)nc2ccccc12 [Compound 10i] yes (1)

Another compound: O=c1[nH]c(NCCCCc2ccccc2)nc2ccccc12 [Compound 10l] no (0)

Another compound: O=c1[nH]c(N2CCN(c3cccc(C(F)(F)F)c3)CC2)nc2ccccc12 [Compound 10f] no (0)

Another compound: O=c1[nH]c(Nc2cccc(-c3ccccc3)c2)nc2ccccc12 [Compound 10e] yes (1)

* * *

assay: in vitro; conditions: African green monkey
Assignment: determine reported CC50 for the given molecules.
The reply should be a number in µM, with the unit left off.

What value of measured CC50 is listed for CC(C)=CCC1=C(O)C(=O)c2ccccc2C1=O ? 10

Another molecule: O=c1[nH]c(Nc2ccc(-c3ccccc3)cc2)nc2ccccc12 [Compound 10d] 70

* * *

assay: in vitro; conditions: African green monkey
assayMetric: CC50 (µM)
The reply should be a number in µM, with the unit left off.

What value of measured CC50 is listed for O=C1C(O)=C(Nc2ccc(F)cc2)C(=O)c2ccccc21 [QHM230, reference compound] ? 100

Another molecule: O=c1[nH]c(Nc2ccc3c(c2)OCCO3)nc2ccccc12 [Compound 10c] 390

Another molecule: O=c1[nH]c(NCCCCc2ccccc2)nc2ccccc12 [Compound 10l] 60

Another molecule: O=c1[nH]c(N2CCN(c3ccccc3)CC2)nc2ccccc12 [Compound 10g] 150

* * *

system: SARS-CoV-2; experiment: SARS-CoV-2 replication inhibition in Calu-3 cells, viral titers by plaque assay; assay type: cell-based; settings: Severe acute respiratory syndrome coronavirus 2; SARS-CoV-2 in infected Calu-3 cells, MOI 0.1, 48 h, PFU/mL; read-out: EC50
Assignment: determine reported EC50 for the given compounds.
The reply should be a number in nM, with the unit left off.

Recall the recorded EC50 for CCC(CC)COC(=O)[C@H](C)N[P@](=O)(OC[C@H]1O[C@@](C#N)(c2ccc3c(N)ncnn23)[C@H](O)[C@@H]1O)Oc1ccccc1 [Remdesivir] with SARS-CoV-2 and state it. 30

Another compound: Cc1c(-c2ccc(-c3ccccc3F)cc2)nc2ccc(F)cc2c1C(=O)O [Brequinar] 800

* * *

assay: physchem; conditions: aqueous with cosolvent or surfactant or cyclodextrin
The label depends only on solubility: true if it is at least 30 µM, false if it is smaller.

Quick check: does COc1ccc(Nc2nc3ccccc3c(=O)[nH]2)cc1 [Compound 10a] have solubility greater than or equal to 30 µM? false

Another molecule: COc1ccc(Nc2nc3ccccc3[nH]c2=O)cc1 true

Another molecule: O=c1[nH]c(Nc2ccc(F)cc2)nc2ccccc12 [Compound 10b] true

Another molecule: O=c1[nH]c(NCCc2ccccc2)nc2ccccc12 [Compound 10i] true
